Hey, just so you know, these numbers are from paper PMC2984425.

test: Plasma pharmacokinetics after single and multiple oral doses (LC-MS/MS, non-compartmental analysis); type: in vivo, human; settings: human, plasma, po, 850 mg, single oral dose 850 mg, n = 8; read-out: Cmax, geometric mean
parameter: Cmax
Kindly write the number and append the unit.

Enquiry: // returns reported Cmax for input N#CC1(c2ccc(NC(=O)c3cccnc3NCc3ccncc3)cc2)CCCC1
Return: 2830 ng/mL

---

test: Plasma pharmacokinetics after single and multiple oral doses (LC-MS/MS, non-compartmental analysis); type: in vivo, human; settings: human, plasma, po, 750 mg, multiple oral dose of 750 mg, Day 1, n = 11; read-out: t1/2λz, mean (converted)
parameter: half-life

Enquiry: Item N#CC1(c2ccc(NC(=O)c3cccnc3NCc3ccncc3)cc2)CCCC1 [apatinib] has what recorded half-life?
Return: 8.9 h
